- EXPERIMENTAL TARGET: human mAChR M1 (Homo sapiens)
- Sequence (P11229 whole entry): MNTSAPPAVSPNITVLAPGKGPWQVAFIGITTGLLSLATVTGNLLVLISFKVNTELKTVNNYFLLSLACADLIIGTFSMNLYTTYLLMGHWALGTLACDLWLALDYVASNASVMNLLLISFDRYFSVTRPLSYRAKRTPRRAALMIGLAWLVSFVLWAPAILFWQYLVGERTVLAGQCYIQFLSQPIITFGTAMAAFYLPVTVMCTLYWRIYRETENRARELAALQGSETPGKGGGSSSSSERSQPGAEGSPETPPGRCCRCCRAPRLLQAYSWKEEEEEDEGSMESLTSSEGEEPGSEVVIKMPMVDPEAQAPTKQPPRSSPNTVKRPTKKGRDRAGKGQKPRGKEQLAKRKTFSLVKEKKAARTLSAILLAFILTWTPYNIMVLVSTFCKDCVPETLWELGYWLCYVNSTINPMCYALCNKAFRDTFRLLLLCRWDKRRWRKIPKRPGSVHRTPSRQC
- TEST SUMMARY: mAChR M1 cell-based functional assay (calcium mobilization), PAM activity: increase in the EC20 acetylcholine response
- EXPERIMENTAL SETUP: CHO-K1 cells expressing hM1; calcium flux (Fluo-4); potentiation of EC20 acetylcholine response
// NB: equality with 80% counts as FALSE; only Emax strictly below is TRUE

COMPOUND	EXPERIMENTAL TARGET	LABEL VALUE
Cc1c(Cc2ccc(-c3ccn(C)n3)cc2)cc(C(=O)N[C@H]2CCC[C@@H]2O)nc1-n1cccn1	human mAChR M1 (Homo sapiens)	FALSE
Cn1cc(-c2ccc(Cc3cc(C(=O)NC4CCOCC4(C)C)nc(-c4ccn(C)n4)c3)cn2)cn1 (stereo not drawn)	human mAChR M1 (Homo sapiens)	TRUE
Cc1ccc(Cc2cc(C(=O)N[C@H]3CCCC[C@@H]3O)nc(-c3ccn(C)n3)c2C)cn1	human mAChR M1 (Homo sapiens)	TRUE
Cc1c(Cc2ccc(-c3ccn(C)n3)nc2)cc(C(=O)NC2CCOCC2)nc1-n1cccn1	human mAChR M1 (Homo sapiens)	TRUE
Cc1c(Cc2ccc(-c3ccn(C)n3)nc2)cc(C(=O)N[C@H]2CCCC[C@@H]2O)nc1-n1cccn1	human mAChR M1 (Homo sapiens)	FALSE
Cc1c(Cc2ccc(-n3cccn3)cc2)cc(C(=O)N[C@H]2CCOC[C@@H]2O)nc1-c1ccn(C)n1	human mAChR M1 (Homo sapiens)	TRUE
Cc1c(Cc2ccc(-c3ccn(C)n3)nc2)cc(C(=O)N[C@H]2CCOC[C@@H]2O)nc1-n1cccn1	human mAChR M1 (Homo sapiens)	FALSE
Cc1nc(-c2ccc(Cc3cc(C(=O)NC4CC5(COC5)C4)nc(-n4cccn4)c3)cc2)co1	human mAChR M1 (Homo sapiens)	TRUE
Cn1ccc(-c2ccc(Cc3cc(C(=O)N[C@H]4CCOC[C@@H]4O)nc(-c4ccn(C)n4)c3)cc2)n1	human mAChR M1 (Homo sapiens)	TRUE
Cn1cc(-c2ccc(Cc3cc(C(=O)N[C@H]4CCCC[C@@H]4O)nc(-n4cccn4)c3)cn2)cn1	human mAChR M1 (Homo sapiens)	TRUE
Cc1c(Cc2ccc(-c3ccn(C)n3)cc2)cc(C(=O)NC2CCOCC2(C)C)nc1-c1ccn(C)n1 (stereo not drawn)	human mAChR M1 (Homo sapiens)	FALSE
Cn1cc(-c2ccc(Cc3cc(C(=O)N[C@H]4CCCC[C@@H]4O)nc(-c4ccn(C)n4)c3)cn2)cn1	human mAChR M1 (Homo sapiens)	FALSE
Cn1ccc(-c2ccc(Cc3cc(C(=O)N[C@H]4CCCC[C@@H]4O)nc(-c4ccn(C)n4)c3)cc2)n1	human mAChR M1 (Homo sapiens)	TRUE
Cc1c(Cc2ccc(-c3ccn(C)n3)cc2)cc(C(=O)NC2CCOCC2)nc1-n1cccn1	human mAChR M1 (Homo sapiens)	FALSE
Cn1ccc(-c2ccc(Cc3cc(C(=O)N[C@H]4CCC[C@@H]4O)nc(-n4cccn4)c3)cc2)n1	human mAChR M1 (Homo sapiens)	TRUE
